For each entry below, report its log10 CC50 at 24 h value.
# Assay Info: Cytotoxicity assay (MTS/PMS)
# Assay type: cell-based
# Settings: monkey, Vero cells (monkey kidney epithelial cells); 24 h treatment, MTS/PMS, average of three biological replicates; read-out: CC50 against Vero cells
Scale type: logarithmic (base 10). Underlying CC50 at 24 h unit: µg/mL.

Q) Give its log10 CC50 at 24 h value. Item: CN(CC[C@H](N)CC(=O)N[C@H]1C=C[C@H](n2ccc(NC(=O)c3ccc(NC(=O)[C@@](C)(N)CO)cc3)nc2=O)O[C@@H]1C(N)=O)C(=N)N
A) 1.81

Q) Bench note: what log10 CC50 at 24 h did CC(=O)Nc1ccc(C(=O)Nc2ccn([C@H]3C=C[C@H](NC(=O)C[C@@H](N)CCN(C)C(=N)N)[C@@H](C(=O)O)O3)c(=O)n2)cc1 show?
A) 2.31

Q) Field request: log10 CC50 at 24 h | item: CN(CC[C@H](N)CC(=O)N[C@H]1C=C[C@H](n2ccc(N)nc2=O)O[C@@H]1C(N)=O)C(=N)N [Blastimidine A1, P10, reference compound]
A) 0.85

Q) log10 CC50 at 24 h for COC(=O)[C@H]1O[C@@H](n2ccc(NC(=O)c3ccc(NC(=O)[C@@](C)(N)CO)cc3)nc2=O)C=C[C@@H]1NC(=O)C[C@@H](N)CCN(C)C(=N)N ?
A) 2.18

Q) Which log10 CC50 at 24 h reading was recorded for the compound COC(=O)[C@H]1O[C@@H](n2ccc(NC(=O)c3ccc(NC(C)=O)cc3)nc2=O)C=C[C@@H]1NC(=O)C[C@@H](N)CCN(C)C(=N)N ?
A) 2.32

* * *

Assign MIC to each entry below.
# Test system: MRSA ATCC 43300

Q) Using the record for COC(=O)[C@H]1O[C@@H](n2ccc(N)nc2=O)C=C[C@@H]1NC(=O)C[C@@H](N)CCN(C)C(=N)N [Blastimidine M1, blasticidin S methyl ester] , report its MIC.
A) 16 to 32 µg/mL

Q) Item CN(CC[C@H](N)CC(=O)N[C@H]1C=C[C@H](n2ccc(NC(=O)c3ccc(N)cc3)nc2=O)O[C@@H]1C(=O)O)C(=N)N [Blastimidine C2] has what recorded MIC?
A) > 128 µg/mL

Q) For the compound shown here, CN(CC[C@H](N)CC(=O)N[C@H]1C=C[C@H](n2ccc(N)nc2=O)O[C@@H]1C(=O)O)C(=N)N [Blastimidine C1, blasticidin S] , give the reported MIC.
A) > 128 µg/mL

Q) // MIC lookup, key: CC(=O)Nc1ccc(C(=O)Nc2ccn([C@H]3C=C[C@H](NC(=O)C[C@@H](N)CCN(C)C(=N)N)[C@@H](C(=O)O)O3)c(=O)n2)cc1 [Blastimidine C4]
A) > 128 µg/mL
